Measured values drawn from PubChem BioAssay (NCI) for this set.

# Tested on: SN12C renal
# experimental protocol: NCI tumour cell line growth inhibition, 48 h
endpoint label: TGI

O=C(Nc1ccc([N+](=O)[O-])cc1)C(=O)C(C(=O)c1ccccc1F)C1OC(=O)c2ccccc21 (stereo not drawn) :: > 100 µM

Entry under review: O=C1CC2C(=O)N(Cc3ccccc3)C1C(S(=O)(=O)c1ccccc1)C2S(=O)(=O)c1ccccc1 (stereo not drawn) . Reported TGI?
3.18 µM

What value of TGI has been reported for the following molecule? COC(=O)[C@@]12OC[C@]34C([C@@H](O)C1O)[C@@]1(C)CC(=O)C(O)=C(C)C1C[C@H]3OC(=O)[C@H](OC(=O)CC(C)C(F)(F)F)[C@H]42 (stereo partly drawn)
0.911 µM

Any idea what its TGI is? The molecule is NC1=Nc2ccccc2Sc2nnc(-c3ccc(Cl)cc3)n21
> 100 µM

Name the reported TGI value associated with the molecule CSc1c(C(=O)Nc2ccc(Cl)cc2)c(N)[nH]c(=O)c1C#N
> 82.2 µM

----------
# Tested on: MDA-MB-435
# experimental protocol: NCI tumour cell line growth inhibition, 48 h
endpoint label: TGI

Solved cases (4 shown):
Clc1ncnc2c1nc(C#Cc1ccccc1)n2Cc1ccccc1 :: 43 µM
CCOC(=O)c1cnn(-c2ccnc3c(C(F)(F)F)cccc23)c1N :: > 100 µM
COc1ccc(/C=C2\CCCC3=C2NC(C)=NC3c2ccc(OC)c(OC)c2)cc1OC (stereo unspecified) :: > 100 µM
O=C1CCc2cc3c(cc21)CC1(Cc2ccccc2C1)C3 :: 5.92 µM

Quick check: TGI of COc1cc2c(c(OC)c1OC)C(=O)[C@H]1OC(=O)N[C@@H]21 ?
> 100 µM

What measured TGI goes with CN=C(N)N/N=C(\C)c1ccc2oc3ccc(/C(C)=N/NC(N)=NC)cc3c2c1 ?
> 100 µM

----------
# Test system: CCRF-CEM leukemia
# experimental protocol: NCI tumour cell line growth inhibition, 48 h
endpoint label: TGI

Some solved cases for reference:
CCOC(=O)N1CCN(S(=O)(=O)c2oc(-c3ccc(Cl)cc3)nc2C#N)CC1 :: 5.13 µM
CC(C)CNC(=O)Cn1c2c(c3ccccc31)CCCC2 :: > 100 µM
O=C(NN1C(=O)CSC1c1ccc(Cl)cc1)c1[nH]c2ccc(F)cc2c1-c1ccccc1 (stereo unspecified) :: 5.85 µM

Form field: reported TGI of O=Cc1cc2c(o1)C(=O)c1ccccc1C2=O
6.4 µM

Give the measured TGI of CC1CC2(CC[C@@H]1O)OCCO2 (stereo partly specified) .
> 100 µM

Quick check: TGI of COc1ccc2cc3n(c2c1)CCc1cc(OC)c(OC)cc1-3 ?
> 100 µM

----------
# Tested on: UACC-62 melanoma
# experimental protocol: NCI tumour cell line growth inhibition, 48 h
Documented TGI across a set of compounds

Some entries whose results are on file:
Fc1ccc(Nc2nccc(-c3c(-c4ccc(C(F)(F)F)cc4)nn4ncccc34)n2)cc1F :: > 25 µM
O=C(Cc1ccccc1)N/N=C(\C1=Nc2ccc([N+](=O)[O-])cc2NC1O)C(O)c1ccc([N+](=O)[O-])cc1 (stereo not given) :: > 100 µM
Nc1ccc(S(=O)(=O)c2ccc(NC(=O)c3cccnc3)cc2)cc1 :: > 100 µM
Cc1cc(NS(=O)(=O)c2ccc(Nc3c4ccccc4nc4ccc(C(=O)Nc5ccc(S(=O)(=O)N=C(N)N)cc5)cc34)cc2)no1 :: > 100 µM
CCO[C@@H]1C2C=CC(C2)[C@H]1[N+](=O)[O-] (stereo not given in full) :: > 100 µM
O=[N+]([O-])c1ccc(CS(=O)Cc2ccccc2)cc1 (stereo not given) :: > 100 µM
C=CC12CN(C)C3C4COC(CC41)C1(C(=O)Nc4ccccc41)C32 (stereo not given) :: > 200 µM
O=C(Nc1ccc2c(c1)oc(=O)c1ccccc12)C(Cl)Cl :: > 100 µM
CSCC[C@H]1C(=O)N=C(N)N1C(=O)OCc1ccccc1 :: 63.9 µM

Enter reported TGI observed with UACC-62 melanoma for O=C1C=CC(=O)c2c(O)c(N[C@@H](Cc3ccccc3)C(=O)OCc3ccccc3)c(Cl)c(O)c21
> 10 µM

----------
# System: RPMI-8226 leukemia
# experimental protocol: NCI tumour cell line growth inhibition, 48 h; in the data active = GI50 below about 0.43 µM; inactive = the rest
Respond only with the outcome that fits, drawn from y for active, n for inactive

Solved cases (8 shown):
COC(=O)[C@@H]1CCCN1C(=O)[C@@H]1CCCN1C(=O)[C@@H](Cc1c[nH]c2ccccc12)NC(=S)Nc1cc(C(F)(F)F)cc(C(F)(F)F)c1 :: n
CN(C)c1ccc(N=Nc2c([O-])ccc3ccccc23)cc1.[C-]#[O+].[C-]#[O+].[Ir] :: n
N#CC1C(N)=NNC12Nc1ccccc1N2 (stereo not given) :: n
COc1ccc2c(c1)C(=O)c1c-2n(CCCN2CCOCC2)c(=O)c2ccccc12 :: n
O=C(NN1C(=O)CSC1c1ccc(Cl)cc1)c1[nH]c2ccc(F)cc2c1-c1ccccc1 (stereo not given) :: n
O=c1oc2ccc(Cl)cc2c(=O)n1-c1ccc(I)cc1F :: y
COc1ccccc1-c1c(C)nn2c(NCc3ccccn3)cc(C)nc12 :: n
CCCCCCCCCCCCC(=O)[O-].CCCCCCCCCCCCC(=O)[O-].CCCCCCCCCCCCC(=O)[O-].CCCCCCCCCCCCC(=O)[O-].[Mo+2].[Mo+2] :: n

Per the assay record, what outcome was assigned to Cc1cn2c(/C=N/N/C(N)=N\N)c(-c3ccc(Cl)c([N+](=O)[O-])c3)nc2s1 ?
n

Which result was noted for this compound in the test: Nc1nc(OCc2ccccc2)nc2[nH]ncc12
n

----------
# Test system: SF-539 CNS
# experimental protocol: NCI tumour cell line growth inhibition, 48 h; in the data active = GI50 below about 0.43 µM; inactive = the rest
Pick one: true (1) = active, false (0) = inactive

// param item: CN(C)c1ccc(N=Nc2c([O-])ccc3ccccc23)cc1.[C-]#[O+].[C-]#[O+].[Ir] ; yields the recorded call
false (0)

What did this assay record as the result for CCOC(=O)c1c(C)n(Cc2ccc(Cl)cc2Cl)c2c1cc1oc(=O)c(=O)n3c(Cc4ccccc4)nc2c13 ?
false (0)

// param item: COc1cc2cc(Oc3ccc(NC(=O)c4ccc(Cl)c(C(F)(F)F)c4)cc3)c(C)nc2cc1OC ; yields the recorded call
false (0)

----------
Examples of compounds with documented TGI follow.
# System: HOP-62 NSCLC
# experimental protocol: NCI tumour cell line growth inhibition, 48 h
Answer with a number only, understood to be in µM.

CCOC(=O)c1c(C)n(Cc2ccc(Cl)cc2Cl)c2c1cc1oc(=O)c(=O)n3c(Cc4ccccc4)nc2c13 :: 18.3

Turning to the following compound.
# lookup: TGI of CCCCCCCCCCCC1N=C(N)NC(CCCO)=C1C(=O)OC (stereo not given)
8.53

----------
// TGI lookup, one value per entry
# System: MOLT-4 leukemia
# experimental protocol: NCI tumour cell line growth inhibition, 48 h

CCOC(=O)C(NC(=O)NC(C(=O)OCC)C(=O)OCC)C(=O)OCC :: > 100 µM
O=C(CC(C(=O)c1cccs1)c1ccsc1)c1ccsc1 (centres undefined) :: > 100 µM
CSc1nc(-c2ccccc2)c2c(n1)-c1ccccc1CC2 :: > 100 µM
CC(=O)c1cccc(NCn2nnc3ccccc32)c1 :: > 100 µM
Cc1cc(C2(c3cc(C)c(O)c(C(=O)O)c3)OS(=O)(=O)c3ccccc32)cc(C(=O)O)c1O :: > 100 µM
CC(=O)NC(CCCN(Cc1ccccc1)C(=O)N(CCCl)N=O)C(=O)NCc1ccccc1 (centres undefined) :: 97.5 µM
CC1CC[C@@]2(OC1)OC1C[C@H]3[C@@H]4CC[C@H]5CC(OC6OC(CO)C(OC7OC(CO)C(O)C(O)C7O)C(O)C6O)CCC5(C)[C@H]4CCC3(C)C1[C@@H]2C (some centres undefined) :: 25.4 µM
COC(=O)C(=O)C(C(=O)C=C(C)C)C(=O)C(=O)Nc1cccc(C(C)=O)c1 (centres undefined) :: > 100 µM

// moving on: another record for TGI
Request the reported TGI associated with CC(=O)Nc1ccc(N2C(=O)/C(=C\c3cccc(Oc4ccccc4)c3)SC2c2ccccc2)cc1 (centres undefined)
68.5 µM

----------
# System: NCI-H23 lung
# experimental protocol: NCI tumour cell line growth inhibition, 48 h
endpoint label: TGI

Cc1cccc(C)c1NC(=O)CCCC(=O)C1CC(=O)CCC1=O (stereo not drawn) :: > 100 µM
CCOc1ccc(NC(=O)CC2SC(N)=NC2=O)cc1 (stereo not drawn) :: > 100 µM

Which TGI is reported with NCI-H23 lung for this entry: CCCCCCCCCCCCC(=O)[O-].CCCCCCCCCCCCC(=O)[O-].CCCCCCCCCCCCC(=O)[O-].CCCCCCCCCCCCC(=O)[O-].[Mo+2].[Mo+2] ?
40.6 µM

So what TGI did CC(C)[C@@H](COC(C)(C)C)N=CN1CCc2c([nH]c3ccccc23)C1 get with NCI-H23 lung?
> 100 µM

Query for NCI-H23 lung: what TGI does the record show for COC(=O)[C@@]12OC[C@]34C([C@@H](O)C1O)[C@@]1(C)CC(=O)C(O)=C(C)C1C[C@H]3OC(=O)[C@H](OC(=O)CC(C)C(F)(F)F)[C@H]42 (stereo partly drawn) ?
0.0717 µM

Field: TGI (NCI-H23 lung). Entry: CC(Oc1ccc(OCC2CCCCC2)cc1)C(=O)N(CCO)CCO (stereo not drawn)
> 100 µM

// lookup TGI | system=NCI-H23 lung | key= Cc1ccc(C(=O)C#Cc2cn(C3CC(O)C(CO)O3)c(=O)[nH]c2=O)cc1 (stereo not drawn)
> 100 µM

For NCI-H23 lung, provide TGI of Cc1cccc(C(C)(C)C)c1NC(=O)C(=O)C(c1cnc2ccccc2n1)[N+](=O)[O-] (stereo not drawn) please.
> 100 µM

Hi! What's the reported TGI for NCCCc1ccc2oc3ccccc3c2c1 on NCI-H23 lung?
41.8 µM

Enter reported TGI observed with NCI-H23 lung for Fc1ccc(Nc2nccc(-c3c(-c4ccc(C(F)(F)F)cc4)nn4ncccc34)n2)cc1F
> 25 µM

Lab request: please report TGI under test system NCI-H23 lung for O=[N+]([O-])c1ccc(CS(=O)Cc2ccccc2)cc1 (stereo not drawn)
> 100 µM

Notebook: pull reported TGI for NCI-H23 lung, entry COc1ccc(-c2ccc(/C=N/n3c(COc4ccc(Cl)cc4)n[nH]c3=S)o2)c([N+](=O)[O-])c1
33.7 µM

Recall the recorded TGI for O=C(O)c1c[nH]cc1C(=O)O with NCI-H23 lung and state it.
> 100 µM

Lab request: please report TGI under test system NCI-H23 lung for O=C(CC(C(=O)c1ccsc1)c1ccccc1)c1cccs1 (stereo not drawn)
77.3 µM

Short answer please: TGI, NCI-H23 lung, entry N=c1oc2ccc(Cl)cc2cc1C(=O)Nc1ccccc1
> 100 µM

Please state recorded TGI (tested on NCI-H23 lung) of Cc1cccc(Nc2cn(CCOc3ccccc3)c(=O)n(CCOc3ccccc3)c2=O)c1
> 100 µM

Query for NCI-H23 lung: what TGI does the record show for C=C[C@]1(C)C=C2C(=O)[C@@]3(O)OC[C@@]4(CCCC(C)(C)C43O)C2(O)C(O)C1 (stereo partly drawn) ?
8.51 µM

Identify the measured TGI of Cc1ccc(NC(=O)CC(=O)n2nc(C)c(N=Nc3ccc(S(=O)(=O)CCOS(=O)(=O)O)cc3)c2C)cc1 for NCI-H23 lung.
> 100 µM

Fill in the recorded TGI for this compound, with NCI-H23 lung as test system: Clc1ccc2nc(Oc3ccccc3)cnc2c1
> 100 µM

Tell me reported TGI for CC(C)(Br)C(=O)/C=C/c1ccccc1 , tested with NCI-H23 lung.
5 µM

Lab note: need TGI for Clc1ccc(CN2COc3c(cc(Cl)c4cccnc34)C2)cc1 on NCI-H23 lung, anyone have it?
6.8 µM

Write down the reported TGI of C/C=C(/CCCCNCCCC)[Si](C)(C)C , test system: NCI-H23 lung.
31.9 µM
